src = patent US7105515B2

Structures can show the parent of a compound that is named as a salt.
For each of the molecules below, state its melting point.

What melting point value was documented for this molecule, "CCN(CC)CCc1c[nH]c2ccc(NS(=O)(=O)c3ccc(Cl)s3)cc12" ?
180 to 181 °C

Bench note: what melting point did "CN1CCC(c2c[nH]c3ccc(NS(=O)(=O)c4ccc(Cl)s4)cc23)CC1" show?
284 °C (dec.)

Which melting point value belongs to "CCN(CC)CCc1c[nH]c2ccc(NS(=O)(=O)c3ccc(-c4ccccc4)cc3)cc12" ?
161 to 163 °C

Data request, read-out melting point, for "CCN(CC)CCc1c[nH]c2ccc(NS(=O)(=O)c3cc(Cl)cc(Cl)c3)cc12"
168 to 170 °C

What value of measured melting point is listed for "Cc1c(S(=O)(=O)Nc2ccc3[nH]cc(CCN(C)C)c3c2)sc2ccc(Cl)cc12" ?
226 to 227 °C

Would you mind telling me what melting point value was observed for "CN1CCC(c2c[nH]c3ccc(NS(=O)(=O)c4cccc5cccnc45)cc23)CC1" ?
280 °C (dec.)

Reported melting point for "CCN(CC)CCc1c[nH]c2ccc(NS(=O)(=O)c3sc4ccc(Cl)cc4c3C)cc12" : what is it?
170 to 173 °C

Using the record for "CCN(CC)CCc1c[nH]c2ccc(NS(=O)(=O)c3ccc4ccccc4c3)cc12" , report its melting point.
172 to 173 °C

Name the reported melting point value associated with the molecule "CN1CCC(c2c[nH]c3ccc(NS(=O)(=O)c4ccc(-c5ccccc5)cc4)cc23)CC1"
247 to 248 °C

Can you look up the measured melting point of "CN(C)CCc1c[nH]c2ccc(NS(=O)(=O)c3cccc4ccccc34)cc12" for me?
203 to 205 °C

Sample CN1CCC(c2c[nH]c3ccc(NS(=O)(=O)c4cccc5ccccc45)cc23)CC1 (as salt: HCl) — what was its melting point?
212 °C (dec.)

Suppose we examine the molecule CCN(CC)CCc1c[nH]c2ccc(NS(=O)(=O)c3cccc4ccccc34)cc12 (as salt: HCl) ; what melting point value has been reported?
255 to 257 °C
